Hey, just so you know, these numbers are from paper PMC8217813.

target-desc: HLA A*0201 (Homo sapiens, UniProt P04439, D140Y/D185E/D98H/E176V/E277Q/G131W/G231S/I119V/I121R/I166T/I218V/L300P/L318F/N151K/N90K/P208A/P217A/Q86G/Q94H/R138H/R169H/T345S)
Construct: Pure Protein, LLC (ran the assay)
assay-procedure: biochemical
Type: binding
Peptide text beside a SMILES is read from it.
measure-name: IC50 (µM)
State just the number; it will be interpreted in µM.

Guide cases for IC50, answers given:
Prompt line: Entry CC[C@H](C)[C@H](NC(=O)[C@H](CCCCN)NC(=O)[C@H](CC(C)C)NC(=O)[C@@H](N)Cc1ccc(O)cc1)C(=O)N[C@H](C(=O)N[C@@H](CCC(N)=O)C(=O)N[C@@H](CC(N)=O)C(=O)N[C@@H](CO)C(=O)N[C@@H](CC(C)C)C(=O)O)[C@@H](C)CC [Cluster 319_ICS5] (H-YLKIIQNSL-OH) has what IC50?
Response line: 4.88

Prompt line: Entry CC[C@H](C)[C@H](NC(=O)[C@H](CCCCN)NC(=O)[C@H](CCCCN)NC(=O)[C@H](CC(C)C)NC(=O)[C@@H](N)Cc1ccc(O)cc1)C(=O)N[C@@H](CCC(N)=O)C(=O)N[C@@H](CC(N)=O)C(=O)N[C@@H](CO)C(=O)N[C@@H](CC(C)C)C(=O)O [Cluster 319_ICS2] (H-YLKKIQNSL-OH) has what IC50?
Response line: 2.18

Prompt line: Entry CC[C@H](C)[C@H](NC(=O)[C@H](CCCCN)NC(=O)[C@H](CCCCN)NC(=O)[C@H](CC(C)C)NC(=O)[C@H](Cc1ccc(O)cc1)NC(=O)[C@H](CCC(=O)O)NC(=O)[C@@H](NC(=O)[C@@H](NC(=O)[C@@H](N)Cc1c[nH]cn1)[C@@H](C)CC)[C@@H](C)O)C(=O)O [Cluster 315_ICS2] (H-HITEYLKKI-OH) has what IC50?
Response line: 148

Consider the additional compound presented here.
Prompt line: Entry CC[C@H](C)[C@H](NC(=O)[C@H](CCCCN)NC(=O)[C@H](CCCCN)NC(=O)[C@H](CC(C)C)NC(=O)[C@@H](N)Cc1ccc(O)cc1)C(=O)N[C@@H](CCC(N)=O)C(=O)N[C@@H](Cc1ccc(O)cc1)C(=O)N[C@@H](CO)C(=O)N[C@@H](CC(C)C)C(=O)O [Cluster 319_ICS7] (H-YLKKIQYSL-OH) has what IC50?
Response line: 2.58
